Recorded binding signal for the following sequences
# Study Target: GST-Dm-Relish (Drosophila melanogaster, UniProt Q94527 99-473)
# Sequence: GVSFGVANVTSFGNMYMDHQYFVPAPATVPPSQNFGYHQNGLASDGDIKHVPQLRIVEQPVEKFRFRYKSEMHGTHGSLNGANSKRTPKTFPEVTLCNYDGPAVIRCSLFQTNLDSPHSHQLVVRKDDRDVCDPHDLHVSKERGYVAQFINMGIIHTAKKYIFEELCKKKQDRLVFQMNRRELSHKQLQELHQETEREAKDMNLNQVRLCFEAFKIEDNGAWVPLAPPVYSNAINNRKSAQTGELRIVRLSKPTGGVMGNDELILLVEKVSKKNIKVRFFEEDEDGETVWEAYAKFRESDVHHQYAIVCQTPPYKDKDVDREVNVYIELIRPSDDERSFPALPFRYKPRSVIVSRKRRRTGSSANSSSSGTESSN
# Assay Details: protein-binding microarray (PBM); PBM: ~300 nM protein, 6 mM HEPES pH 7.8, 80 mM KCl, 0.5 mM EDTA, 0.5 mM EGTA, 6% glycerol, 35 ng/ul poly-dIdC, 1% milk, 1 h, room temperature; Ap Aiptasia and Nv Nematostella (sea anemones) / Co Capsaspora / Aq Amphimedon (sponge) / Dm Drosophila / Hu human; RHD is the Rel homology domain; high values mean tight binding
# Condition: dsDNA, one strand shown

{"columns": ["Biopolymer Sequence", "binding signal [z-score]"],
 "data": [
  ["CCGATTAACATCAACGTCCCCCCTGATGTTAATCGGGTCTTGATTCGCTTGACGCTGCTG", 4.4],
  ["CCGATTAACATCAGGGAAACTAATGATGTTAATCGGGTCTTGATTCGCTTGACGCTGCTG", 1.22],
  ["CCGATTAACATCAAGCAATCCCCTGATGTTAATCGGGTCTTGATTCGCTTGACGCTGCTG", 5.11],
  ["CCGATTAACATCAATTTCCCATATGATGTTAATCGGGTCTTGATTCGCTTGACGCTGCTG", 2.14],
  ["CCGATTAACATCAGGCTTTTCCCTGATGTTAATCGGGTCTTGATTCGCTTGACGCTGCTG", 2.3],
  ["CCGATTAACATCAGGGATTACCATGATGTTAATCGGGTCTTGATTCGCTTGACGCTGCTG", 6.01],
  ["CCGATTAACATCAGGAATTTCCATGATGTTAATCGGGTCTTGATTCGCTTGACGCTGCTG", 2.65],
  ["CCGATTAACATCAAATAGGGAATTGATGTTAATCGGGTCTTGATTCGCTTGACGCTGCTG", 1.32],
  ["CCGATTAACATCAGATTCTCCCCTGATGTTAATCGGGTCTTGATTCGCTTGACGCTGCTG", 1.92],
  ["CCGATTAACATCAAGAAAATTCCTGATGTTAATCGGGTCTTGATTCGCTTGACGCTGCTG", 1.53],
  ["CCGATTAACATCAGATTTTCCCCTGATGTTAATCGGGTCTTGATTCGCTTGACGCTGCTG", 4.94],
  ["CCGATTAACATCAGGGAATCCCCTGATGTTAATCGGGTCTTGATTCGCTTGACGCTGCTG", 11],
  ["CCGATTAACATCAAATACCCCCATGATGTTAATCGGGTCTTGATTCGCTTGACGCTGCTG", 3.98],
  ["CCGATTAACATCAGGGAATTTTATGATGTTAATCGGGTCTTGATTCGCTTGACGCTGCTG", 6.83],
  ["CCGATTAACATCAATTCACCCCCTGATGTTAATCGGGTCTTGATTCGCTTGACGCTGCTG", 3.16],
  ["CCGATTAACATCAAGTACTTTCCTGATGTTAATCGGGTCTTGATTCGCTTGACGCTGCTG", 5.26],
  ["CCGATTAACATCAAAACACCCCCTGATGTTAATCGGGTCTTGATTCGCTTGACGCTGCTG", 6.95],
  ["CCGATTAACATCAAGGGGGTTCCTGATGTTAATCGGGTCTTGATTCGCTTGACGCTGCTG", 10.4],
  ["CCGATTAACATCACTATTTCCCCTGATGTTAATCGGGTCTTGATTCGCTTGACGCTGCTG", 3.62],
  ["CCGATTAACATCAGGCATTCCCATGATGTTAATCGGGTCTTGATTCGCTTGACGCTGCTG", 3.64],
  ["CCGATTAACATCAAAGAGCCCCCTGATGTTAATCGGGTCTTGATTCGCTTGACGCTGCTG", 3.94],
  ["CCGATTAACATCAGGAATGCCCCTGATGTTAATCGGGTCTTGATTCGCTTGACGCTGCTG", 5.92],
  ["CCGATTAACATCAGTAAACTCCATGATGTTAATCGGGTCTTGATTCGCTTGACGCTGCTG", 1.1],
  ["CCGATTAACATCAAAATACCCCCTGATGTTAATCGGGTCTTGATTCGCTTGACGCTGCTG", 7.72],
  ["CCGATTAACATCAGGGGATCCACTGATGTTAATCGGGTCTTGATTCGCTTGACGCTGCTG", 9.75],
  ["CCGATTAACATCAAGGAGTTCCCTGATGTTAATCGGGTCTTGATTCGCTTGACGCTGCTG", 5.39],
  ["CCGATTAACATCAGGGAAACACCTGATGTTAATCGGGTCTTGATTCGCTTGACGCTGCTG", 6.92],
  ["CCGATTAACATCAGACTTTCCCCTGATGTTAATCGGGTCTTGATTCGCTTGACGCTGCTG", 4.9],
  ["CCGATTAACATCACCCGTTCCCCTGATGTTAATCGGGTCTTGATTCGCTTGACGCTGCTG", 1.99],
  ["CCGATTAACATCACGGGATGTCCTGATGTTAATCGGGTCTTGATTCGCTTGACGCTGCTG", 3.42],
  ["CCGATTAACATCAGGGGGTTGACTGATGTTAATCGGGTCTTGATTCGCTTGACGCTGCTG", 4.51],
  ["CCGATTAACATCAGGATTTTCCATGATGTTAATCGGGTCTTGATTCGCTTGACGCTGCTG", 1.28],
  ["CCGATTAACATCAGACTTTCCCATGATGTTAATCGGGTCTTGATTCGCTTGACGCTGCTG", 1.53],
  ["CCGATTAACATCAAGTACCCCCCTGATGTTAATCGGGTCTTGATTCGCTTGACGCTGCTG", 4.13],
  ["CCGATTAACATCAGAAATCCCACTGATGTTAATCGGGTCTTGATTCGCTTGACGCTGCTG", 5.45],
  ["CCGATTAACATCAAGGGGGAATATGATGTTAATCGGGTCTTGATTCGCTTGACGCTGCTG", 4.64]
]}
